- System: IMR-90
- Assay Info: SRB cell proliferation assay, IMR-90
- Type: cell-based
- Experimental Conditions: Homo sapiens, 18-Cell Line Panel, lung, read-out: IC50 IMR-90
Here, each record is paired with measured IC50 data.
Endpoint Label: IC50

>>> assay_value("CCC1C(=O)N(C)c2cnc(Nc3ccc(C(=O)NC4CCN(C)CC4)cc3OC)nc2N1C1CCCC1 (stereo not drawn) [BI 2536, reference compound]")
"> 1 µM"
>>> assay_value("CCC1C(=O)N(C)c2cnc(Nc3ccc(C(=O)NC4CCN(C)CC4)cc3OC)nc2N1N(C)C (racemic)")
"> 1 µM"
>>> assay_value("CCC1C(=O)N(C)c2cnc(Nc3ccc(C(=O)N[C@H]4CC[C@H](N5CCN(CC6CC6)CC5)CC4)cc3OC)nc2N1N(C)C (relative stereo)")
"> 1 µM"
